# Tested on: HIF-1-mediated transcription
# procedure.text: HIF-1-mediated transcription under hypoxia, LN229-HRE-Lux luciferase reporter assay
# Format: cell-based, human
# particulars: Homo sapiens, 24 h, Table 1; LN229-HRE-Lux cells, hypoxia (1% O2), 24 h; read-out: IC50
Measured pIC50 of individual entries
Value format note: pIC50 is -log10 of concentration (mol/L); just state the number.

A selection of reference data follows.
COc1ccc(NCc2ccc3c(c2)C=CC(C)(C)O3)cc1OC : 5.52
COc1ccc(N(C)Cc2ccc3c(c2)C=CC(C)(C)O3)cc1OC : 5.30
CN(Cc1ccc2c(c1)C=CC(C)(C)O2)c1ccccn1 : 5.08

Moving on to another molecule below.
# lookup: pIC50 of `Cc1ccc(N(C)Cc2ccc3c(c2)C=CC(C)(C)O3)c(C)c1`
5.59

###

# Test system: HIF-1-mediated transcription
# procedure.text: HIF-1-mediated transcription under hypoxia, LN229-HRE-Lux luciferase reporter assay
# Type: cell-based, human
# particulars: Homo sapiens, 24 h, Table 4; LN229-HRE-Lux cells, hypoxia (1% O2), 24 h; read-out: IC50
Catalogue of IC50 readings, one per entry.
Report the figure in µM without appending any unit label.

Endpoint output: IC50 of CCC1(C)C=Cc2cc(CN(c3ccccc3)S(=O)(=O)c3ccc(OC)c(OC)c3)ccc2O1 (centres unmarked) . Value?
3.1

IC50 lookup needed for `COc1ccc(S(=O)(=O)N(Cc2cnc3ccccc3c2)c2ccccc2)cc1OC` , thanks.
1.3

###

List of pIC50 values.
# Tested on: HIF-1-mediated transcription
# procedure.text: HIF-1-mediated transcription under hypoxia, LN229-HRE-Lux luciferase reporter assay
# Assay type: cell-based, human
# particulars: Homo sapiens, 24 h, Table 9; LN229-HRE-Lux cells, hypoxia (1% O2); results from single runs
Expect pIC50 as a plain number equal to -log10 of the molar concentration.

Which value of pIC50 has been reported for CC1(C)C=Cc2cc(CN(c3ccccc3)S(=O)(=O)c3ccc([N+](=O)[O-])cc3)ncc2O1 [Compound 36b] in the records?
5.74

Can you share its pIC50? I mean this molecule: CC(C)c1ccc(S(=O)(=O)N(Cc2cc3c(cn2)OC(C)(C)C=C3)C2CCCCC2)cc1 [Compound 36c]
5.96

So what's the measured pIC50 for this one? COc1ccc(S(=O)(=O)N(Cc2cc3c(cn2)OC(C)(C)C=C3)C2CCCCC2)cc1OC [Compound 36d]
5.24

###

# System: HIF-1-mediated transcription
# procedure.text: HIF-1-mediated transcription under hypoxia, LN229-HRE-Lux luciferase reporter assay
# Assay type: cell-based, human
# particulars: Homo sapiens; LN229-HRE-Lux cells, hypoxia (1% O2); n=26; read-out: IC50
measured.metric: pIC50
Value format note: pIC50 is -log10 of concentration (mol/L); just state the number.

Dear colleague, I am looking for the recorded pIC50 of the following molecule: COc1ccc(S(=O)(=O)N(Cc2ccc3c(c2)C=CC(C)(C)O3)c2ccccc2)cc1OC [KCN-1, reference compound]
6.15

###

Entries and their IC50
# Tested on: HIF-1-mediated transcription
# procedure.text: HIF-1-mediated transcription under hypoxia, LN229-HRE-Lux luciferase reporter assay
# Assay type: cell-based, human
# particulars: Homo sapiens, 24 h; LN229-HRE-Lux cells, hypoxia (1% O2), 24 h; read-out: IC50
Field: numeric (nM). Do not append units.

Study these solved cases before continuing.
C#CCN(Cc1ccc2c(c1)C=CC(C)(C)O2)S(=O)(=O)c1ccc(OC)c(OC)c1 : 1300
COc1ccc(S(=O)(=O)N(Cc2ccc3c(c2)CC(C)(C)O3)C2CCCC2)cc1OC [Compound 16f] : 400

Value lookup for IC50; key = COc1ccc(S(=O)(=O)N(Cc2ccc3c(c2)CC(C)(C)O3)C2CCCCCC2)cc1OC [Compound 16b]
9100

Need IC50 of `COc1ccc(S(=O)(=O)N(Cc2ccc3c(c2)C=CC(C)(C)O3)C2CCCC2)cc1OC` , thanks.
1600

Request the reported IC50 associated with COc1ccc(S(=O)(=O)N(Cc2ccc3c(n2)C=CC(C)(C)O3)C2CCC2)cc1OC [Compound 26i]
250
